- Target entity: T1, GST-RGS12 PDZ domain fusion protein (human regulator of G-protein signalling 12 AA35-103; PDZ domain 1 of 1) (human, UniProt P08515 1-218 = GST)
- T1 construct: also called RSG12
- T1 sequence (P08515 1-218, tags or fused parts left off): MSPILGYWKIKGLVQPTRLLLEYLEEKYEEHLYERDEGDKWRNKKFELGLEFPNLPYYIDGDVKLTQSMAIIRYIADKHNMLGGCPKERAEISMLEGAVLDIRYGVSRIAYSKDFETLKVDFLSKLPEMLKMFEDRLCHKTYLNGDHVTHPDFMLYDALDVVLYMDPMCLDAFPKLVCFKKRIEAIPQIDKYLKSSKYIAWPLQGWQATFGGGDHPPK
- Test: A/G assays
Ends that are not written are not given here. * marks the point of attachment. Biotin = O=C1N[C@H]2[C@H](CS[C@H]2CCCCC(=O)*)N1
Quantity measured: binding result

In [3]: df
Out[3]:
                                     binder  quantity_measured  reported_result
0  Biotin-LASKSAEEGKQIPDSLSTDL [DOCK2 C-terminal PL peptide AA40L, biotinylated]     binding result       no binding
1  Biotin-LERVSSTSPSTGEHELSAGF [CC CKR-1R C-terminal PL peptide AA41L, biotinylated]     binding result       no binding
2  Biotin-ARHRVTSYTSSSVNVSSNL [CDW128A (IL8RA) C-terminal PL peptide AA29.1L, biotinylated]     binding result       no binding
3  Biotin-PKQANGGAYQKPTKQEEFYA [CD138 (syndecan) C-terminal PL peptide AA18L, biotinylated]     binding result       no binding
